TARGET_OF_ASSAY: Hypoxia-inducible factor 1-alpha (Homo sapiens)
METHOD_DESCRIPTION: activators of HIF1alpha nuclear accumulation, confirmation, imaging, fluorescence, U2OS GFP-HIF1alpha (AID 434951)
CONDITION_LABEL: U2OS GFP-HIF1alpha nuclear intensity, high-content imaging
The source made the active and inactive calls.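 The calls were made as follows: active = a fitted half-maximal concentration EC50 for the rise in nuclear signal no higher than ten times the top dose tested; inconclusive = flat fit with activity between 30% and 70%, or unusable fit; inactive = EC50 beyond ten times the top dose.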
Valid outcomes are listed here; reply with one: active, inactive

Recorded results for 5 molecules are shown here.
>>> assigned_category("Cc1ccc(S(=O)(=O)c2nc(-c3ccccc3Cl)oc2N(C)C)cc1")
"inactive"
>>> assigned_category("Cc1cc(NC(=O)c2ccccc2)n(-c2nc3ccccc3[nH]2)n1")
"active"
>>> assigned_category("CN(C)C=NC(=O)c1cn(-c2ccc(F)cc2)c(=O)c2ccccc12")
"inactive"
>>> assigned_category("O=C(N/N=C/c1sc2ccccc2c1O)c1cccc2ccccc12")
"active"
>>> assigned_category("O=C(CSc1nnc(-c2ccncc2)o1)N1CCCCCC1")
"inactive"

For the next question, use this molecule.
(Q) So what was the verdict on O=C(NCC1CCCO1)c1cc(-c2ccc(F)cc2)no1 (stereo unspecified) in this test?
(A) active
